- Test system: SK-OV-3 ovarian
- experimentalProtocol: NCI-60 one-dose screen, 48 h (100 = growth as untreated, 0 = no growth, -100 = all killed)
- assayContext: 10 µM unless noted
The panel holds about 83,000 compounds, 20% with a hit somewhere; the sample as a whole holds those more often.
Rule: True for growth not less than 20%, False for anything less.

>>> assignedclass("O=[N+]([O-])c1c(Br)sc(Br)c1[N+](=O)[O-]")
"True"
>>> assignedclass("CCCCCCCC(=O)OCC(=O)[C@]1(O)Cc2c(O)c3c(c(O)c2[C@@H](OC2CC(N)C(O)C(C)O2)C1)C(=O)c1c(OC)cccc1C3=O (some centres undefined)")
"False"
>>> assignedclass("Cc1c(NS(=O)(=O)c2ccccc2)ccc([N+](=O)[O-])c1Cl")
"True"
>>> assignedclass("c1cnc2[nH]cc(-c3csc(-c4cn(CCCCN5CCCCC5)c5ccccc45)n3)c2c1")
"True"
>>> assignedclass("COc1ccc(/C=C\\c2cc(OC)c(OC)c(OC)c2)cc1NC(=O)/C=C/c1cc(OC)c(OC)c(OC)c1")
"False"
>>> assignedclass("COc1ccc(C(=O)c2cc(OC)c(OC)c(OC)c2)cc1OC(C)=O")
"True"
>>> assignedclass("O=C1OCCC1Br (centres undefined)")
"True"
>>> assignedclass("Cc1ccc(C(=O)NCCCOc2ccc(N3C(N)=NC(N)=NC3(C)C)cc2Cl)cc1S(=O)(=O)F")
"True"
>>> assignedclass("CCOC(=O)[C@@H](C)C[C@H](Cc1ccccc1)NC(=O)c1csc([C@@H](C[C@H](C(C)C)N(C)C(=O)CNC(=O)[C@H]2CCCCN2C)OC(C)=O)n1")
"True"

====

- Tested on: IGROV1 ovarian
- experimentalProtocol: NCI-60 one-dose screen, 48 h (100 = growth as untreated, 0 = no growth, -100 = all killed)
- assayContext: 10 µM unless noted
Compounds without any hit were thinned out: in the full panel of roughly 83,000, 20% have a hit.
reportedProperty: growth (%)

>>> reportedmeasurement("COc1cc(/C=C/[N+](=O)[O-])cc(OC)c1")
9.88
>>> reportedmeasurement("Cn1cccc1C1CC(=O)N(CCC[Se]C#N)C1=O (stereo unspecified)")
-44.1
>>> reportedmeasurement("CN(C)C(=O)Oc1ccccc1")
108
>>> reportedmeasurement("N#CCCNc1ccccc1")
119
>>> reportedmeasurement("CCOC(=O)CCC(NC(=O)C(Cc1ccc(N(CCCl)CCCl)cc1)NC=O)C(=O)OCC (stereo unspecified)")
67.2
>>> reportedmeasurement("COc1ccc(/C(C)=C(\\c2ccc(OCCN3CCOCC3)cc2)c2ccc(OC(=O)Cc3ccccc3)cc2)cc1")
113
>>> reportedmeasurement("COc1ccc(/C=C\\c2cc(OC)c(OC)c(OC)c2)cc1OCC(=O)Nc1nc2ccc(F)cc2s1")
17
>>> reportedmeasurement("Cc1cccc(N2CCN(C(C)C#N)CC2)c1 (stereo unspecified)")
108
>>> reportedmeasurement("N#C[Se]Cc1cc(-c2ccccc2)n(-c2ccc(S(N)(=O)=O)cc2)n1")
-35.6
>>> reportedmeasurement("O=[N+]([O-])c1ccc([Se]C2CCCCC2Cl)c([N+](=O)[O-])c1 (stereo unspecified)")
70.8
>>> reportedmeasurement("CC(C)(C)N1CC1C#N (stereo unspecified)")
103
